Here the recorded viability, T/C is given for each entry.
System: 777334-354-R2-J4-PDC tumor spheroids with HUVEC/MSC, viability;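 note: spheroids exposed to compounds for 7 days before readout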
Assay: Anticancer human tumor 777334-354-R2-J4-PDC patient-derived pancreatic adenocarcinoma cell line growth inhibition [GQUAD]
Conditions: second compound 0.316 µM; first compound 0.0316 µM; stronger effect = lower value
From the text: DNA G-quadruplex Stabilizer Agents in Combinations in Complex Spheroids A high-throughput screen of multi-cell type tumor spheroids was designed to identify active combinations of DNA G-quadruplex stabilizer agents and targeted small molecules. […] Compounds. […] If the clinical Cmax for an agent had not been determined, the highest concentration tested was 10 microM. […]

COMPOUND	ATTRIBUTE_MEASURED	VALUE_MEASURED
CC(C)n1c(=O)n(C)c2cnc3cc(F)c(-c4ccc(OCCCN5CCCCC5)nc4)cc3c21 + CN(C)c1ccc(Nc2c3ccc(NC(=O)CCN4CCCC4)cc3nc3cc(NC(=O)CCN4CCCC4)ccc23)cc1	viability, T/C	98.2%
CCCS(=O)(=O)Nc1ccc(F)c(C(=O)c2c[nH]c3ncc(-c4ccc(Cl)cc4)cc23)c1F + Cc1[nH]c2ccc(F)cc2c1-c1nc2c3cccnc3c3ncccc3c2[nH]1	viability, T/C	94.7%
CC(=O)O[C@H]1C(=O)[C@@]2(C)[C@H]([C@H](OC(=O)c3ccccc3)[C@]3(O)C[C@H](OC(=O)[C@H](O)[C@@H](NC(=O)c4ccccc4)c4ccccc4)C(C)=C1C3(C)C)[C@]1(OC(C)=O)CO[C@@H]1C[C@@H]2O + CN(C)c1ccc(Nc2c3ccc(NC(=O)CCN4CCCC4)cc3nc3cc(NC(=O)CCN4CCCC4)ccc23)cc1	viability, T/C	73.9%

// recorded viability, T/C for CC[C@@]1(O)C(=O)OCc2c1cc1n(c2=O)Cc2cc3c(CN(C)C)c(O)ccc3nc2-1 + CN(C)c1ccc(Nc2c3ccc(NC(=O)CCN4CCCC4)cc3nc3cc(NC(=O)CCN4CCCC4)ccc23)cc1 : 79.1%
